Data provenance is PubChem BioAssay (NCATS).

- Tested on: CAOV3
- assay.remarks: Primary qHTS to identify gynecologic anti-cancer compounds using libraries of approved drugs and bioactive compounds (AID 1345084); note: nearly all actives have a fitted effect of over 55% in size
- test.conditions: Gynecologic cancer cell panel viability, ATPlite luminescence, 48 h; series mostly up to 57.5 µM
Records with an inconclusive call do not appear. Calls of active or inactive are those of the source. Calls come from the whole dose curve; as a rule, active = well fitted cell-killing curve with a large enough effect; inconclusive = small, poorly fitted or top-dose-only effect, or effect the other way; inactive = flat fitted curve, though single readings scatter.
Labels: 1 (active), -1 (inactive)

{"columns": ["compound", "study.target", "cat"],
 "data": [
  ["Cn1ncc(Cl)c1-c1cc(C(=O)N[C@H](CN)Cc2ccc(F)c(F)c2)oc1Cl", "CAOV3", -1],
  ["CCC(C)CNCC(=O)N1CCc2sccc2C1COc1cccc(C)c1 (stereo not given)", "CAOV3", -1],
  ["COc1ccc(Cl)c(Nc2ncnc3cc(OCC4CCN(C)CC4)c(OC)cc23)c1", "CAOV3", 1],
  ["Cc1cc2c(F)c(Oc3ncnn4cc(OCC(C)OC(=O)C(C)N)c(C)c34)ccc2[nH]1 (stereo not given)", "CAOV3", -1],
  ["C/C=C(/C)C(=O)O[C@@H]1C[C@@H](OC(=O)CC(C)C)C2(C)C3C(=O)C=C(C)C2C3C1(C)C (stereo not given in full)", "CAOV3", -1],
  ["Cn1cc(-c2ccc(S(=O)(=O)n3ccc(/C=C/C(=O)Nc4ccccc4N)c3)cc2)cn1", "CAOV3", 1],
  ["CC(C)C[C@@H]1NC(=O)[C@@H]2C[C@@]34C[C@@H]5[C@@]6(C)CCCC(C)(C)C6CC[C@@]5(C)N(c5ccccc53)[C@H]4N2C1=O (stereo not given in full)", "CAOV3", -1],
  ["Nc1c(S(=O)(=O)c2ccccc2)c2nc3ccccc3nc2n1-c1ccc(F)cc1", "CAOV3", -1],
  ["Cc1c(Cl)cccc1S(=O)(=O)Nc1nc(NCCc2ccccc2)nc2c1CN(Cc1ccccc1)CC2", "CAOV3", -1],
  ["CCNC1(C(N)=O)CCN(c2ncnc3c2nc(-c2ccccc2Cl)n3-c2ccc(Cl)cc2)CC1", "CAOV3", -1],
  ["O=C(NCC1(c2nc(-c3ccccc3)cs2)CCOCC1)c1cccc(-c2noc(C(F)(F)F)n2)c1", "CAOV3", -1],
  ["Clc1ccc(Cn2c(Cc3ccccc3)nc3ccccc32)cc1", "CAOV3", -1],
  ["COC1CCN(c2cccc(-c3cc(NC(C)=O)nc(-n4nc(C)cc4C)n3)n2)CC1", "CAOV3", -1],
  ["O=c1cc(OCc2ccc(F)cc2)ccn1-c1ccc(OCCN2CCCC2)cc1", "CAOV3", -1],
  ["CCC(C)CNCC(=O)N1CCC2SC=CC2C1COc1cccc(C)c1 (stereo not given)", "CAOV3", -1],
  ["CN(C)[C@@H]1CCc2[nH]c3ccc(NC(=O)c4ccc(F)cc4)cc3c2C1", "CAOV3", -1],
  ["COC(=O)CC(O)CC(O)/C=C/c1c(C)ccc2c1C(OC(C)=O)CC(C)C2 (stereo not given)", "CAOV3", -1],
  ["CCOc1cccc(NC(=O)c2ccc(N3CCCC3)c(C(F)(F)F)c2)c1", "CAOV3", -1],
  ["CCN(CC)CCCCCCNc1cc(OC)cc2c(C)ccnc12", "CAOV3", -1],
  ["C=C1C(=O)OC2C1CCC1(C)C(O)CC=C(C)C21 (stereo not given)", "CAOV3", -1]
]}
